- Test system: C57/BL6 mice fed MCD diet
- Test Description: Pharmacodynamic test in methionine-choline deficient diet (MCD) model of non-alcoholic fatty liver disease
- Type: in vivo
- Run Parameters: MCD mice, 3 weeks; TM compounds 30 mpk, obeticholic acid 40 mpk, once daily by gavage

>  <Molecule>
Cc1cc(C(=O)O)cc(C2CC(O)(c3cnc(OCc4c(-c5c(Cl)cccc5Cl)noc4C(C)C)cn3)C2)c1 (centres unmarked)

>  <Weight, 3 weeks [g]>
17.18

$$$$
>  <Molecule>
O=C(O)c1cccc(N2CC(O)(c3cnc(OCc4c(-c5c(Cl)cccc5Cl)noc4C4CC4)cn3)C2)c1

>  <Weight, 3 weeks [g]>
16.69

$$$$
>  <Molecule>
CC[C@H]1[C@@H](O)[C@@H]2[C@H](CC[C@]3(C)[C@@H]([C@H](C)CCC(=O)O)CC[C@@H]23)[C@@]2(C)CC[C@@H](O)C[C@@H]12 [obeticholic acid, reference compound]

>  <Weight, 3 weeks [g]>
17.60

$$$$
>  <Molecule>
O=C(O)c1cccc(C2CC(O)(c3cnc(OCc4c(-c5c(Cl)cccc5Cl)noc4C4CC4)cn3)C2)c1 (centres unmarked)

>  <Weight, 3 weeks [g]>
16.97

$$$$
>  <Molecule>
CC(C)c1onc(-c2c(Cl)cccc2Cl)c1COc1cnc(C2(O)CC(c3cccc(C(=O)O)c3)C2)cn1 (centres unmarked)

>  <Weight, 3 weeks [g]>
16.41

$$$$
